Tested on: DMPK
test details: DMPK knockdown by transfected antisense oligonucleotides in DM1 C15 myotubes at 0.5 nM and 50 nM
Assay type: cell-based
experimental parameters: 0.5 nM oligonucleotide, 72 hours, relative to vehicle control = 1.00
Below, each of the substances is paired with its reported Normalized DMPK Remaining value.
value kind: Normalized DMPK Remaining

[[record]]
substance = "384 (UGGACGAUCUUGCCAUAGGU; chemistry not given here) [compound 384]"
observed_value = 0.81

[[record]]
substance = "444 (GCGUCACCUCGGCCUCAGCC; chemistry not given here) [compound 444]"
observed_value = 0.80

[[record]]
substance = "438 (UCUAGGGUUCAGGGAGCGCG; chemistry not given here) [compound 438]"
observed_value = 0.78

[[record]]
substance = "437 (CAUCCGCUCCUGCAACUGCC; chemistry not given here) [compound 437]"
observed_value = 0.79


----------
System: DMPK
test details: DMPK knockdown by transfected antisense oligonucleotides in DM1 C15 myotubes at 0.5 nM and 50 nM
Format: cell-based
experimental parameters: 50 nM oligonucleotide, 72 hours, relative to vehicle control = 1.00
Classification field: enter TRUE for Normalized DMPK Remaining values not below 0.4, FALSE for values below it.

[[record]]
substance = "457 (GGGCCUUUUAUUCGCGAGGG; chemistry not given here) [compound 457]"
measurement_target = "DMPK"
class_assignment = "TRUE"

[[record]]
substance = "441 (CAAUCUCCGCCAGGUAGAAG; chemistry not given here) [compound 441]"
measurement_target = "DMPK"
class_assignment = "TRUE"

[[record]]
substance = "382 (AUGUCCCUGUGCACGUAGCC; chemistry not given here) [compound 382]"
measurement_target = "DMPK"
class_assignment = "TRUE"

[[record]]
substance = "415 (AGGGCCUUUUAUUCGCGAGG; chemistry not given here) [compound 415]"
measurement_target = "DMPK"
class_assignment = "FALSE"

[[record]]
substance = "429 (GCGGUCCAGCAGGAUGUUGU; chemistry not given here) [compound 429]"
measurement_target = "DMPK"
class_assignment = "FALSE"

[[record]]
substance = "390 (UCCUGCAACUGCCGGACGUG; chemistry not given here) [compound 390]"
measurement_target = "DMPK"
class_assignment = "TRUE"

[[record]]
substance = "422 (GUAGUUCUCAUCCUGGAAGG; chemistry not given here) [compound 422]"
measurement_target = "DMPK"
class_assignment = "TRUE"

[[record]]
substance = "400 (UGACCAGGUACAGGUAGUUC; chemistry not given here) [compound 400]"
measurement_target = "DMPK"
class_assignment = "FALSE"

[[record]]
substance = "383 (CGGGCCCGGAUCACAGGACU; chemistry not given here) [compound 383]"
measurement_target = "DMPK"
class_assignment = "FALSE"

[[record]]
substance = "475 (GCCUCAGCCUGGCCGAAAGA; chemistry not given here) [compound 475]"
measurement_target = "DMPK"
class_assignment = "FALSE"

[[record]]
substance = "456 (CCUCAGCCUGGCCGAAAGAA; chemistry not given here) [compound 456]"
measurement_target = "DMPK"
class_assignment = "FALSE"

[[record]]
substance = "403 (UCUCCGCCAGGUAGAAGCGC; chemistry not given here) [compound 403]"
measurement_target = "DMPK"
class_assignment = "FALSE"

[[record]]
substance = "378 (GGAUGUUGUCGGGUUUGAUG; chemistry not given here) [compound 378]"
measurement_target = "DMPK"
class_assignment = "TRUE"

[[record]]
substance = "440 (CAGGAGCAGGGAAAGCGCCU; chemistry not given here) [compound 440]"
measurement_target = "DMPK"
class_assignment = "TRUE"


----------
Test system: DMPK
test details: DMPK knockdown by transfected antisense oligonucleotides in DM1 C15 myotubes at 0.5 nM and 50 nM
Type: cell-based
experimental parameters: 50 nM oligonucleotide, 72 hours, relative to vehicle control = 1.00
Classification field: enter True for Normalized DMPK Remaining values not below 0.6, False for values below it.

[[record]]
substance = "442 (AUGUUGUCGGGUUUGAUGUC; chemistry not given here) [compound 442]"
class_assignment = "False"

[[record]]
substance = "418 (GUAGUUGACUGGCGAAGUUC; chemistry not given here) [compound 418]"
class_assignment = "False"

[[record]]
substance = "450 (ACAGAACAACGGCGAACAGG; chemistry not given here) [compound 450]"
class_assignment = "False"

[[record]]
substance = "467 (AGCUCCCGCAGCGUCACCUC; chemistry not given here) [compound 467]"
class_assignment = "False"

[[record]]
substance = "395 (AAGGGCGUCUGCCCAUAGAA; chemistry not given here) [compound 395]"
class_assignment = "True"


----------
Test system: DMPK
test details: Dose-responsive DMPK reduction in DM1 C15 myotubes (EC-50)
Format: cell-based
experimental parameters: DM1 C15 differentiated myotubes, transfection, 72 hours, 100 nM
value kind: Percent DMPK reduction at 100 nM

[[record]]
substance = "294 (CGUUCCAUCUGCCCGCAGCU; chemistry not given here) [compound 294]"
observed_value = "89.97%"

[[record]]
substance = "299 (GCAGGAUGUUGUCGGGUUUG; chemistry not given here) [compound 299]"
observed_value = "89.77%"

[[record]]
substance = "288 (CAGGGACAGCCGCUGGAACU; chemistry not given here) [compound 288]"
observed_value = "90.59%"

[[record]]
substance = "280 (UUGCCAUAGGUCUCCGCCGU; chemistry not given here) [compound 280]"
observed_value = "93.70%"

[[record]]
substance = "301 (UGUUGUCGGGUUUGAUGUCC; chemistry not given here) [compound 301]"
observed_value = "93.95%"

[[record]]
substance = "313 (GGACGAUCUUGCCAUAGGUC; chemistry not given here) [compound 313]"
observed_value = "92.18%"

[[record]]
substance = "257 (CAUGGCAUACACCUGGCCCG; chemistry not given here) [compound 257]"
observed_value = "75.28%"

[[record]]
substance = "270 (GGGCCUGGGACCUCACUGUC; chemistry not given here) [compound 270]"
observed_value = "90.58%"


----------
Below, each of the substances is paired with its reported Normalized DMPK Remaining value.
Tested on: DMPK
test details: DMPK knockdown by transfected antisense oligonucleotides in DM1 C15 myotubes at 0.5 nM and 50 nM
Format: cell-based
experimental parameters: 50 nM oligonucleotide, 72 hours, relative to vehicle control = 1.00
value kind: Normalized DMPK Remaining

[[record]]
substance = "445 (GAGGGCCUUUUAUUCGCGAG; chemistry not given here) [compound 445]"
measurement_target = "DMPK"
value_kind = "Normalized DMPK Remaining"
observed_value = 0.38

[[record]]
substance = "455 (UCCAGUUCCAUGGGUGUGGG; chemistry not given here) [compound 455]"
measurement_target = "DMPK"
value_kind = "Normalized DMPK Remaining"
observed_value = 0.22

[[record]]
substance = "425 (ACCAGGUACAGGUAGUUCUC; chemistry not given here) [compound 425]"
measurement_target = "DMPK"
value_kind = "Normalized DMPK Remaining"
observed_value = 0.23

[[record]]
substance = "389 (CCGAGAGCAGCGCAAGUGAG; chemistry not given here) [compound 389]"
measurement_target = "DMPK"
value_kind = "Normalized DMPK Remaining"
observed_value = 0.59

[[record]]
substance = "424 (CCAUUCACCAACACGUCCCU; chemistry not given here) [compound 424]"
measurement_target = "DMPK"
value_kind = "Normalized DMPK Remaining"
observed_value = 0.13

[[record]]
substance = "411 (UUGCCCAUCCACGUCAGGGC; chemistry not given here) [compound 411]"
measurement_target = "DMPK"
value_kind = "Normalized DMPK Remaining"
observed_value = 0.33

[[record]]
substance = "377 (UUUCCCGAGUAAGCAGGCAG; chemistry not given here) [compound 377]"
measurement_target = "DMPK"
value_kind = "Normalized DMPK Remaining"
observed_value = 0.55

[[record]]
substance = "423 (GGCUCAGGCUCUGCCGGGUG; chemistry not given here) [compound 423]"
measurement_target = "DMPK"
value_kind = "Normalized DMPK Remaining"
observed_value = 0.34

[[record]]
substance = "465 (GCAUCCAAAACGUGGAUUGG; chemistry not given here) [compound 465]"
measurement_target = "DMPK"
value_kind = "Normalized DMPK Remaining"
observed_value = 0.27

[[record]]
substance = "396 (ACAGACAAUAAAUACCGAGG; chemistry not given here) [compound 396]"
measurement_target = "DMPK"
value_kind = "Normalized DMPK Remaining"
observed_value = 0.26

[[record]]
substance = "454 (GCAGAGAGAGGUGCUCCUUG; chemistry not given here) [compound 454]"
measurement_target = "DMPK"
value_kind = "Normalized DMPK Remaining"
observed_value = 0.14

[[record]]
substance = "473 (CUUGUAGUGGACGAUCUUGC; chemistry not given here) [compound 473]"
measurement_target = "DMPK"
value_kind = "Normalized DMPK Remaining"
observed_value = 0.11

[[record]]
substance = "381 (UAGUUCUCAUCCUGGAAGGC; chemistry not given here) [compound 381]"
measurement_target = "DMPK"
value_kind = "Normalized DMPK Remaining"
observed_value = 0.56

[[record]]
substance = "469 (CAGGGAAAGCGCCUCCGAUA; chemistry not given here) [compound 469]"
measurement_target = "DMPK"
value_kind = "Normalized DMPK Remaining"
observed_value = 0.08

[[record]]
substance = "428 (UUGAUGUCCCUGUGCACGU; chemistry not given here) [compound 428]"
measurement_target = "DMPK"
value_kind = "Normalized DMPK Remaining"
observed_value = 0.57

[[record]]
substance = "463 (AGGUAGUUCUCAUCCUGGAA; chemistry not given here) [compound 463]"
measurement_target = "DMPK"
value_kind = "Normalized DMPK Remaining"
observed_value = 0.37

[[record]]
substance = "479 (UUGUAGUGGACGAUCUUGCC; chemistry not given here) [compound 479]"
measurement_target = "DMPK"
value_kind = "Normalized DMPK Remaining"
observed_value = 0.19

[[record]]
substance = "452 (CGGCCUCAGCCUCUGCCGCA; chemistry not given here) [compound 452]"
measurement_target = "DMPK"
value_kind = "Normalized DMPK Remaining"
observed_value = 0.40

[[record]]
substance = "460 (GGUCCAGCAGGAUGUUGUCG; chemistry not given here) [compound 460]"
measurement_target = "DMPK"
value_kind = "Normalized DMPK Remaining"
observed_value = 0.20

[[record]]
substance = "421 (GCGAAUACACCCAGCGCCCA; chemistry not given here) [compound 421]"
measurement_target = "DMPK"
value_kind = "Normalized DMPK Remaining"
observed_value = 0.30

[[record]]
substance = "433 (GCGGAUGGCCUCCAUCUCCC; chemistry not given here) [compound 433]"
measurement_target = "DMPK"
value_kind = "Normalized DMPK Remaining"
observed_value = 0.28

[[record]]
substance = "474 (AGUCGGCCAGGCGGAUGUGG; chemistry not given here) [compound 474]"
measurement_target = "DMPK"
value_kind = "Normalized DMPK Remaining"
observed_value = 0.33

